Source of measurements: PubChem BioAssay (NCI)

# Tested on: MDA-MB-231 breast
# Assay procedure: NCI-60 one-dose screen, 48 h (100 = growth as untreated, 0 = no growth, -100 = all killed)
# Experimental context: 10 µM unless noted
# Method: Cells are grown in 96 well plates and exposed to the test compound for 48 hours. Compounds are tested at a single concentration, which is 10^-5 M for most compounds. The reported endpoint is percent growth (GI% or GIPRCNT), where numbers from 0 - 100% represent growth inhibition, and numbers from -100% - 0 represent cell death. For example, a value of 40 represents 60% growth inhibition. A value of 0 means no net growth occurred over the course of the experiment. […]
The panel holds about 83,000 compounds, 20% with a hit somewhere; the sample as a whole holds those more often.
Outcome: t for growth of at least 80%; f for anything lower.

Known results for compounds:
Compound	Class name
COc1cc(C2CC(c3ccc(C)cc3)=NN2C=O)ccc1Oc1nc2c(c(=O)n(C)c(=O)n2C)n1C (stereo not given)	t
CCOC(=O)C1OC2(CCCC2)OC1C(=O)OCC (stereo not given)	t
Oc1ccc(-c2nc3ccccc3s2)cc1CN(Cc1ccccn1)Cc1ccccn1	f

Does the compound COc1cc(OC)c2sc(-c3ccc(-n4cncc4-c4ccc(OC)c(N)c4)cc3)nc2c1 have recorded growth that is 80% or more? f

Does the compound CC(=O)c1ccc(N2C(=O)c3ccc(Oc4ccccc4)cc3C2=O)cc1 have recorded growth that is 80% or more? t
